- system: Neuropeptide S receptor (Homo sapiens) (UniProt Q6W5P4)
- Sequence (Q6W5P4 whole entry, looked up): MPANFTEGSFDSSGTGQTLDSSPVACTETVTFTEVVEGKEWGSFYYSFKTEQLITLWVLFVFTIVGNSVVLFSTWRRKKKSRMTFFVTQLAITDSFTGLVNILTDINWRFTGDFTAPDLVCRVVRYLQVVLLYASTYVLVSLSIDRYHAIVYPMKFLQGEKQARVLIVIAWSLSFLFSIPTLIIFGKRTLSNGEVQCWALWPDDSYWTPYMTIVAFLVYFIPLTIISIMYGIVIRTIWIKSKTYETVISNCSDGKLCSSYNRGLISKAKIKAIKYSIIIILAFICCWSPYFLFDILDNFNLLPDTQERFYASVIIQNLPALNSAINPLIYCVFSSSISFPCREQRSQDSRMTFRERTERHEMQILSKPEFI
- measurement-protocol: qHTS Assay for Antagonists of the Neuropeptide S Receptor: cAMP Signal Transduction; also: nearly all actives have a fitted effect of over 50% in size; also: potency is read from the fitted curve at half-maximal effect
- reported-conditions: CHO-NPSR cells, cAMP TR-FRET, antagonist mode; series mostly up to 38.3 µM
About 2,300 (1%) of roughly 220,000 compounds were called active. Another 6% or so got no clear call; they are omitted. The sample holds actives, similar compounds and a random draw of the others, so the mix is not that of the screen.
outcome-measure: Potency

>>> reading("Nc1ccccc1Sc1cc(Cl)nnc1Cl")
"inactive"
>>> reading("CCc1nnc(NS(=O)(=O)c2ccc(NC(=S)NC(=O)c3cccs3)cc2)s1")
"inactive"
>>> reading("Cc1cc(C)c(C2C3=C(Nc4c2c(C)nn4-c2ccccn2)c2ccccc2C3=O)c(C)c1 (stereo not drawn)")
"10 µM (active)"

###

- system: Neuropeptide S receptor (Homo sapiens)
- measurement-protocol: qHTS Assay for Antagonists of the Neuropeptide S Receptor: cAMP Signal Transduction; also: nearly all actives have a fitted effect of over 50% in size
- reported-conditions: CHO-NPSR cells, cAMP TR-FRET, antagonist mode; series mostly up to 38.3 µM
- Description: NIH Chemical Genomics Center [NCGC] NIH Molecular Libraries Probe Production centers Network [MLPCN] […] This change in intracellular cAMP level can be detected by a homogeneous LANCE cAMP assay based on the TR-FRET (time resolved fluorescence resonance energy transfer) between a europium-labeled cAMP tracer complex and a cAMP-specific antibody labeled with Alexa Fluor 647. […] Both emission signals from the FRET donor (620 nm) and the acceptor (665 nm) can be detected by a plate reader in the TRF mode. […]
The campaign covered roughly 220,000 compounds. About 2,300 (1%) were called active. About 6% were inconclusive and are not listed. Calls follow the shape of the dose curve; as a rule, active = well fitted inhibition curve with a large enough effect; inconclusive = small, poorly fitted or top-dose-only effect, or effect the other way; inactive = no such curve, though single readings can be large or run the other way. The list comes from a sample in which actives are over-represented; it also holds close analogues and randomly drawn compounds.
Result category, one only: active, inactive

>>> assigned_label("COc1ccccc1N(C)S(=O)(=O)c1ccc(C(=O)NC2CCCCCC2)cc1")
"inactive"
>>> assigned_label("Cn1cnc(S(=O)(=O)Nc2ccc3c(c2)OCCO3)c1")
"inactive"

// query Write down the call the test reported for this molecule. Item: "CC(=O)O[C@]1(C(C)=O)CC[C@H]2[C@@H]3C=C(C)C4=CC(=O)CC[C@]4(C)[C@H]3CC[C@@]21C"
// result active

// query # lookup: test call for "N/C(=N\OC(=O)CCn1cccc(C(F)(F)F)c1=O)c1ccc(OC(F)(F)F)cc1"
// result inactive

// query Status in this test for "Cc1nc2nc(SCC(=O)c3ccccc3)[nH]c2cc1Br" ?
// result inactive

// query Record request — test call for "Oc1[nH]c2ccc(Br)cc2c1N=Nc1nn[nH]n1"
// result inactive

// query Field: outcome | Entry: O=C(/C=C/c1ccccc1[N+](=O)[O-])NCC1CCCO1 (centres undefined)
// result inactive

###

- system: Neuropeptide S receptor (Homo sapiens) (UniProt Q6W5P4)
- measurement-protocol: qHTS Assay for Antagonists of the Neuropeptide S Receptor: cAMP Signal Transduction; also: nearly all actives have a fitted effect of over 50% in size
- reported-conditions: CHO-NPSR cells, cAMP TR-FRET, antagonist mode; series mostly up to 38.3 µM
Among all 220,000 compounds or so, about 2,300 (1%) were called active. Roughly 6% stayed inconclusive and do not appear here. Calls come from the whole dose curve; as a rule, active = well fitted inhibition curve with a large enough effect; inconclusive = small, poorly fitted or top-dose-only effect, or effect the other way; inactive = no such curve, though single readings can be large or run the other way. Shown is part of a subset that was picked to be rich in actives.
Select the correct class. Options are active, inactive and nothing else.

>>> assigned_label("Cc1cc(C)c(C)c(S(=O)(=O)N[C@@H](C)C(=O)OC(C)C(=O)NC(N)=O)c1C (some centres not stated)")
"inactive"
>>> assigned_label("O=C(Cn1nnc(N2CCCCC2)n1)c1ccc(Cl)c(Cl)c1")
"inactive"
>>> assigned_label("CCOC(=O)c1c(C)[nH]c2c1-c1ccccc1C(=O)C2=O")
"inactive"
>>> assigned_label("CC1=NNC(=O)C1CCC(=O)N/N=C(\\C)c1ccc(Cl)cc1 (configuration not stated)")
"inactive"
>>> assigned_label("COCc1cc(=O)[nH]c(-c2ccc(C(F)(F)F)cc2)n1")
"inactive"

// query So what was the verdict on "COc1cc2nc(Cl)nc(NCCO)c2cc1OC" in this test?
// result inactive

// query I'd appreciate the recorded outcome for "CC(=O)NCc1ccc(S(=O)(=O)NC2CCN(Cc3ccccc3)CC2)cc1" from this test.
// result inactive

// query For "COc1ccc(NC(=O)CCN2C(=O)/C(=C/c3ccc4c(c3)OCO4)SC2=S)cc1" , what call appears in the results of this test?
// result inactive

// query Field: outcome | Entry: O=C(NCC(c1cccs1)N1CCOCC1)c1cc(-c2ccccn2)nc2ccccc12 (configuration not stated)
// result inactive

// query Returns: the outcome recorded for "Cn1nnc(NC(=S)NC(=O)c2ccccc2)n1" in this assay.
// result inactive

// query Recorded call for CC1CC2=C(CC1/C=N/NC(N)=S)C(C)(C)CCC2 (configuration not stated) ?
// result active

// query Hi team, can someone confirm the assay call for "COc1ccc(Br)c2c1C(=O)CC2" ?
// result inactive

// query Please state the recorded outcome for this compound: "COC(C[C@@H](O)[C@H](C)[C@H](O)COCc1ccccc1)OC"
// result inactive

// query Returns: the outcome recorded for "CCOC(=O)c1c(C)[nH]c(=S)c(C#N)c1-c1ccccc1" in this assay.
// result active

// query Please share the test call associated with "Cc1csc(Nc2ccc(Cl)cc2)[n+]1-c1ccc(Cl)cc1" .
// result active

// query Outcome logged for N#CC1=C(SCc2ccccc2)NC(=O)C(C#N)C12CCCC2 (configuration not stated) in this assay:
// result inactive

// query Kindly provide the recorded test outcome for the following compound: CCC(C)NC(=O)c1c(N)n(/N=C/c2cccs2)c2nc3ccccc3nc12 (configuration not stated)
// result inactive

// query Tell me the assay call for "CCC(=O)c1ccc(OCC(=O)Nc2ccc3nc(C)sc3c2)cc1" please.
// result inactive

// query What did this assay record as the result for "O=C(Nc1cccnc1Oc1ncnc2cc(Cl)ccc12)c1ccc(F)cc1" ?
// result inactive

###

- system: Neuropeptide S receptor (Homo sapiens) (UniProt Q6W5P4)
- measurement-protocol: qHTS Assay for Antagonists of the Neuropeptide S Receptor: cAMP Signal Transduction; also: nearly all actives have a fitted effect of over 50% in size
- reported-conditions: CHO-NPSR cells, cAMP TR-FRET, antagonist mode; series mostly up to 38.3 µM
Screen size: about 220,000 compounds; about 2,300 (1%) were called active. Another 6% or so got no clear call; they are omitted. The call rests on the fitted dose curve; in most records, active means well fitted inhibition curve with a large enough effect; inconclusive means small, poorly fitted or top-dose-only effect, or effect the other way; inactive means no such curve, though single readings can be large or run the other way. Many of the other results were omitted from the sample, so actives are more common in it than they were.
Write down one outcome, taken from 1 (active), -1 (inactive)

For orientation, consider the following solved cases.
>>> assigned_label("COc1ccc(C(=O)C2CCCN(Cc3ccc4nonc4c3)C2)c(C)c1 (stereo not drawn)")
-1
>>> assigned_label("COc1ccc(CN2C(=O)C(C)S/C2=N/N=C/c2ccco2)cc1 (stereo not drawn)")
-1
>>> assigned_label("O=C(NCc1cccs1)c1cc(-c2ccccn2)nc2ccc(Br)cc12")
1
>>> assigned_label("O=C(CCCl)Nc1ccc(S(=O)(=O)NCc2ccco2)cc1")
-1
>>> assigned_label("COC(=O)c1cc(NC(=O)c2ccco2)ccc1N1CCOCC1")
-1
>>> assigned_label("COc1ccc(CCNC(=O)C(=O)NCC2CCNCC2)cc1OC")
-1

// query Hi, sorry to bother you, what did the test record for C/C=C(\C)C(=O)N1CC2(CC(c3cccc(NC(=O)CCCCC)c3)=NO2)C[C@@H]1C(N)=O (stereo partly drawn) ?
// result -1

// query Given "CC(=O)Nc1ccc(CC#N)cc1" , state the outcome it received in this test.
// result -1

// query Call for entry "CSc1c(SCc2ccccc2)cnn(Cc2ccccc2)c1=O" :
// result 1

###

- system: Neuropeptide S receptor (Homo sapiens) (UniProt Q6W5P4)
- measurement-protocol: qHTS Assay for Antagonists of the Neuropeptide S Receptor: cAMP Signal Transduction; also: nearly all actives have a fitted effect of over 50% in size
- reported-conditions: CHO-NPSR cells, cAMP TR-FRET, antagonist mode; series mostly up to 38.3 µM
- Description: NIH Chemical Genomics Center [NCGC] NIH Molecular Libraries Probe Production centers Network [MLPCN] […] This change in intracellular cAMP level can be detected by a homogeneous LANCE cAMP assay based on the TR-FRET (time resolved fluorescence resonance energy transfer) between a europium-labeled cAMP tracer complex and a cAMP-specific antibody labeled with Alexa Fluor 647. […] Both emission signals from the FRET donor (620 nm) and the acceptor (665 nm) can be detected by a plate reader in the TRF mode. […]
Out of some 220,000 compounds screened, about 2,300 (1%) were called active. Another 6% or so got no clear call; they are omitted. The call rests on the fitted dose curve; in most records, active means well fitted inhibition curve with a large enough effect; inconclusive means small, poorly fitted or top-dose-only effect, or effect the other way; inactive means no such curve, though single readings can be large or run the other way. This excerpt belongs to a sample that is enriched for actives.
Field 'call' accepts 1 for active, 0 for inactive

Here are 3 compounds together with their reported answers.
>>> assigned_label("C=CCn1c(N)c(C(=O)OCC(C)C)c2nc3ccccc3nc21")
0
>>> assigned_label("COc1ccc(CCNC(=O)C(Sc2ccccn2)c2ccccc2)cc1OC (centres undefined)")
0
>>> assigned_label("COc1cc(C(CCN2CCN(c3ccccc3)CC2)c2c(OC)cc(OC)c3ccc(=O)oc23)cc(OC)c1OC (centres undefined)")
1

// query // return assay outcome for "CC(C)Cn1c(N)c(C(=O)NCc2cccs2)c2nc3ccccc3nc21"
// result 1

The measurements presented in this section are drawn from PubChem BioAssay AID1461.
